Test system: 966289-007-R4-J1-PDC complex spheroid viability;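 further: spheroids exposed to the agents for seven days before readout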
assay info: Anticancer human tumor 966289-007-R4-J1-PDC patient-derived pancreatic adenocarcinoma cell line growth inhibition [GQUAD]; active means viability on the fitted dose curve at most 10% of control; inactive means the rest
experimental parameters: second compound 1 µM; first compound 0.0316 µM
// one of active, inactive, no free text

Example results:
CC(C)n1c(=O)n(C)c2cnc3cc(F)c(-c4ccc(OCCCN5CCCCC5)nc4)cc3c21 + Cc1cnc(CNC(=O)c2c(=O)c3ccc(N4CCCN(C)CC4)nc3n3c2sc2ccccc23)cn1	active
Cn1ncnc1[C@H]1c2n[nH]c(=O)c3cc(F)cc(c23)N[C@@H]1c1ccc(F)cc1 + Cc1[nH]c2ccc(F)cc2c1-c1nc2c3cccnc3c3ncccc3c2[nH]1	inactive
C#Cc1c(F)ccc2cc(O)cc(-c3ncc4c(N5CC6CCC(C5)N6)nc(OCC56CCCN5CC(F)C6)nc4c3F)c12 (stereo not given) + CN(C)c1ccc(Nc2c3ccc(NC(=O)CCN4CCCC4)cc3nc3cc(NC(=O)CCN4CCCC4)ccc23)cc1	inactive
Cc1cccc(N(C)C(=O)C2C(O)CCN2c2nc(C)cc(C(F)(F)F)c2C#N)c1 (stereo not given) + Cc1cnc(CNC(=O)c2c(=O)c3ccc(N4CCCN(C)CC4)nc3n3c2sc2ccccc23)cn1	active

Kindly review the next molecule as well.
// query Recorded call for Cn1ncnc1[C@H]1c2n[nH]c(=O)c3cc(F)cc(c23)N[C@@H]1c1ccc(F)cc1 + CN(C)c1ccc(Nc2c3ccc(NC(=O)CCN4CCCC4)cc3nc3cc(NC(=O)CCN4CCCC4)ccc23)cc1 ?
// result inactive
